biological target: SCRIB_1, Q14160; experiment: holdup assay; set-up: key: below the threshold = too weak to quantify, mostly under pKd 3.1 to 4; conditions: plain residues with an end cap or a label only (N-terminal biotin on a linker: ado-ado)
Sequence (Q14160 718-814): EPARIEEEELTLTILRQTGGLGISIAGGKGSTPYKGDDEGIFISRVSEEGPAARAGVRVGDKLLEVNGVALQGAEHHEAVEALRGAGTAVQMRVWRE
measured-attribute: pKd
I only need the number, thanks.

# query: pKd of entry MQHQRTHTRV [ZSCAN30, Q86W11] 3.68

Next binder up: REEPDHSTEV [CCRL2, O00421] 4.03

Next binder up: RFQQRMQTHV [KIRREL1, Q96J84] 4.25

Next binder up: SPDRDRESIV [SCN5A, Q14524] 3.57

Next binder up: GIKKITSTAL [RPS6KA3, P51812] 4.94
